target: T1, human G-protein-coupled receptor family C group 5 member D (GPRC5D) (human, UniProt Q9NZD1 1-345); experiment: FACS, CHO-K1/GPRC5D
T1 construct: whole, on cells; also called human GPRC5D protein
T1 sequence (Q9NZD1 whole entry): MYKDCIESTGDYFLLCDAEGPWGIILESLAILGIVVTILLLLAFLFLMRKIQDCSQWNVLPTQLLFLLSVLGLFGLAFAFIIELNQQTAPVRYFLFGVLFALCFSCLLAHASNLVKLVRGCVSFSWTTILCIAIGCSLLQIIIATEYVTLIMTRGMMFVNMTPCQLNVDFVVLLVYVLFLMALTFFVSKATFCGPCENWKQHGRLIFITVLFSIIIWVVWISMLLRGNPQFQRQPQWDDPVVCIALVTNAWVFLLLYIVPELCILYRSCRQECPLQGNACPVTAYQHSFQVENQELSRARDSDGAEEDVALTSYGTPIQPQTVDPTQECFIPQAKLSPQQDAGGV
Field: LogEC50. Provide a value for each of the binders that follow.

# annotated cases, reported LogEC50 shown
[[record]]
binder = "6-H4L2 (antibody, V domains shown, humanized 6G10D9, VH v4 x VL v2) VH: QVQLVQSGAEVAKPGASVKMSCKASGYTFTTYTMHWVKQAPGQGLEWLGYINPSSGYTNYNQKFKDRVTLTADTSTSTVYMELSSLRSEDTAVYYCASLRSRGYFDYWGQGTLLTVSS VL: DIQLTQSPSFLSTSVGDRVTITCKASQNVGTAVVWYQQKPGKSPKLLIYSASNRYTGVPSRFSGSGSGTEFTLTISSLQPEDFATFYCQQYSSYPYTFGQGTKLEIK"
reportedendpoint = "LogEC50"
reportedvalue = 1.98

[[record]]
binder = "6-H1L1 (antibody, V domains shown, humanized 6G10D9, VH v1 x VL v1) VH: QVQLVQSGAEVKKPGASVKVSCKASGYTFTTYTMHWVRQAPGQGLEWMGYINPSSGYTNYNQKFKDRVTMTRDTSTSTVYMELSSLRSEDTAVYYCSRLRSRGYFDYWGQGTLVTVSS VL: DIQLTQSPSFLSASVGDRVTITCKASQNVGTAVVWYQQKPGKAPKLLIYSASNRYTGVPSRFSGSGSGTEFTLTISSLQPEDFATYYCQQYSSYPYTFGQGTKLEIK"
reportedendpoint = "LogEC50"
reportedvalue = "~3.1"

[[record]]
binder = "6-H3L1 (antibody, V domains shown, humanized 6G10D9, VH v3 x VL v1) VH: QVQLVQSGAEVAKPGASVKVSCKASGYTFTTYTMHWVKQAPGQGLEWLGYINPSSGYTNYNQKFKDRVTMTADTSTSTVYMELSSLRSEDTAVYYCASLRSRGYFDYWGQGTLVTVSS VL: DIQLTQSPSFLSASVGDRVTITCKASQNVGTAVVWYQQKPGKAPKLLIYSASNRYTGVPSRFSGSGSGTEFTLTISSLQPEDFATYYCQQYSSYPYTFGQGTKLEIK"
reportedendpoint = "LogEC50"
reportedvalue = 2.35


Field: next binder
May I ask what LogEC50 has been recorded for 6-H3L2 (antibody, V domains shown, humanized 6G10D9, VH v3 x VL v2) VH: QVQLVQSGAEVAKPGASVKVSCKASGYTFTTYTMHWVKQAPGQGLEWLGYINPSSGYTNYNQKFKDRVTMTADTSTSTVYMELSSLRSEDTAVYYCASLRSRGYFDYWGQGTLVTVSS VL: DIQLTQSPSFLSTSVGDRVTITCKASQNVGTAVVWYQQKPGKSPKLLIYSASNRYTGVPSRFSGSGSGTEFTLTISSLQPEDFATFYCQQYSSYPYTFGQGTKLEIK ?
2.24

The origin of these recorded values is patent US12281162.
